- TEST_SYSTEM: adenosine A1 receptor (A1R) (Homo sapiens (Human))
- EXPERIMENT_NOTES: Inhibition of adenosine A1 receptor cAMP signaling pathway (HTRF cAMP, CHO-K1/A1R cells)
- Assay type: cell-based
- TEST_CONDITIONS: Table 2; selectivity A1R over A2aR
- Protocol: Test Example 1. […] The inhibition activity of the compounds of the present invention on the adenosine A2a receptor cAMP signaling pathway, the adenosine A2b receptor cAMP signaling pathway, the adenosine A1 receptor cAMP signaling pathway and the adenosine A3 receptor cAMP signaling pathway was determined by the following method. […]
Give measured IC50 ratio (A1R/A2aR) for each item. Keep answers brief.

Look up and state reported IC50 ratio (A1R/A2aR) for Cc1cc(-c2c(-c3ccccc3)nc(N)n3cnnc23)cc2cccnc12 [Example 5]
133

Look up and state reported IC50 ratio (A1R/A2aR) for Cc1cc(-c2c(-c3ccccc3F)nc(N)n3cnnc23)cc(CF)n1 [Example 57]
117

Look up and state reported IC50 ratio (A1R/A2aR) for Nc1nc(-c2ccccc2)c(-c2ccc3ncccc3c2)c2nncn12 [Example 3]
257

Look up and state reported IC50 ratio (A1R/A2aR) for Cc1cc(-c2c(-c3ccccc3F)nc(N)n3cnnc23)cc(Cl)n1 [Example 27]
142

Look up and state reported IC50 ratio (A1R/A2aR) for Cc1cc(-c2c(-c3ccc(Cl)cc3F)nc(N)n3cnnc23)cc(C(F)F)n1 [Example 59]
330

Look up and state reported IC50 ratio (A1R/A2aR) for Cc1cc(-c2c(-c3ccc(F)cc3)nc(N)n3cnnc23)cc(C(F)F)n1 [Example 51]
1161

Look up and state reported IC50 ratio (A1R/A2aR) for Cc1cc(-c2c(-c3ccccc3)nc(N)n3cnnc23)cc(Cl)n1 [Example 4]
463

* * *

- TEST_SYSTEM: adenosine A1 receptor (A1R) (Homo sapiens (Human), UniProt P30542)
- Sequence (P30542 whole entry): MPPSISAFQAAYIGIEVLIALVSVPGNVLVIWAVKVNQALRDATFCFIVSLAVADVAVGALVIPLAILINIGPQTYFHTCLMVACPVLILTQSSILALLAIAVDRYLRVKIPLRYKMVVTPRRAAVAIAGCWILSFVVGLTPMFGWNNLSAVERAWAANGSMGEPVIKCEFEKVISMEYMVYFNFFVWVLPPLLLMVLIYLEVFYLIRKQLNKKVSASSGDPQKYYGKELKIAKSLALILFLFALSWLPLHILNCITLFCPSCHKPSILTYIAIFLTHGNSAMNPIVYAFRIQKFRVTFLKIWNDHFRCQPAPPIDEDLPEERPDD
- EXPERIMENT_NOTES: Inhibition of adenosine A1 receptor cAMP signaling pathway (HTRF cAMP, CHO-K1/A1R cells)
- Assay type: cell-based
- TEST_CONDITIONS: Table 2; CHO-K1/A1R cells, forskolin 10 μM, CPA 10 nM, cAMP HTRF
Give measured IC50 for each item. Keep answers brief.
Expressed in nM, but write only the number.

Look up and state reported IC50 for Cc1cc(-c2c(-c3ccccc3F)nc(N)n3cnnc23)cc(C(F)F)n1
248

Look up and state reported IC50 for Cc1cc(-c2c(-c3ccc(F)cc3F)nc(N)n3cnnc23)cc(C(F)F)n1
519

Look up and state reported IC50 for Cc1cc(-c2c(-c3ccccc3)nc(N)n3cnnc23)cc2cccnc12
12

Look up and state reported IC50 for Cc1cc(-c2c(-c3ccccc3F)nc(N)n3cnnc23)cc(C)n1
173

Look up and state reported IC50 for Cc1cc(-c2c(-c3ccc(Cl)cc3)nc(N)n3cnnc23)cc(C(F)F)n1
41

Look up and state reported IC50 for Cc1cc(-c2c(-c3ccc(Cl)cc3F)nc(N)n3cnnc23)cc(C(F)F)n1
1010

Look up and state reported IC50 for Cc1cc(-c2c(-c3ccc(F)cc3F)nc(N)n3cnnc23)cc(C(F)(F)F)n1
409

* * *

- TEST_SYSTEM: adenosine A3 receptor (A3R) (Homo sapiens (Human))
- Sequence (P0DMS8 whole entry): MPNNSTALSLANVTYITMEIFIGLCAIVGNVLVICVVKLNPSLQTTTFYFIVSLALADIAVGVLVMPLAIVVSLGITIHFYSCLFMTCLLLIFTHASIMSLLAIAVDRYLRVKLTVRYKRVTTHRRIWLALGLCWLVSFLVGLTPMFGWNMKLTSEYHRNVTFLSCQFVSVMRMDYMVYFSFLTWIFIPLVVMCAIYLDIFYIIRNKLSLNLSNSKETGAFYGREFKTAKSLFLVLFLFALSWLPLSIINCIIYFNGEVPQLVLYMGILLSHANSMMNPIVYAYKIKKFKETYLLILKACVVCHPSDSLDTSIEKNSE
- EXPERIMENT_NOTES: Inhibition of adenosine A3 receptor cAMP signaling pathway (HTRF cAMP, CHO-K1/A3R cells)
- Assay type: cell-based
- TEST_CONDITIONS: Table 2; CHO-K1/A3R cells, forskolin 10 μM, 2Cl-IB-MECA 5 nM, cAMP HTRF
MEASURED_ENDPOINT: IC50

Look up and state reported IC50 for Nc1nc(-c2ccccc2)c(-c2cc(F)c3ncccc3c2)c2nncn12
5000 nM

Look up and state reported IC50 for Cc1cc(-c2c(-c3ccccc3F)nc(N)n3cnnc23)cc(C)n1
> 10000 nM

Look up and state reported IC50 for Cc1cc(-c2c(-c3ccc(F)cc3)nc(N)n3cnnc23)cc(C)n1
> 10000 nM

Look up and state reported IC50 for Cc1cc(-c2c(-c3ccccc3)nc(N)n3cnnc23)cc(Cl)n1
> 10000 nM

Look up and state reported IC50 for Cc1cc(-c2c(-c3ccccc3F)nc(N)n3cnnc23)cc(CF)n1
> 10000 nM

Look up and state reported IC50 for Cc1cc(-c2c(-c3ccccc3F)nc(N)n3cnnc23)cc(C(F)F)n1
> 10000 nM

Look up and state reported IC50 for Cc1cc(-c2c(-c3ccc(Cl)cc3)nc(N)n3cnnc23)cc(C(F)F)n1
> 10000 nM

Look up and state reported IC50 for Cc1cc(-c2c(-c3ccc(F)cc3)nc(N)n3cnnc23)cc(CF)n1
> 10000 nM

Look up and state reported IC50 for Nc1nc(-c2ccccc2)c(-c2ccc3ncccc3c2)c2nncn12
2000 nM
